- Test System: UniProtKB Q6QLK5
- Sequence (Q6QLK5 whole entry, the tested form may be a part): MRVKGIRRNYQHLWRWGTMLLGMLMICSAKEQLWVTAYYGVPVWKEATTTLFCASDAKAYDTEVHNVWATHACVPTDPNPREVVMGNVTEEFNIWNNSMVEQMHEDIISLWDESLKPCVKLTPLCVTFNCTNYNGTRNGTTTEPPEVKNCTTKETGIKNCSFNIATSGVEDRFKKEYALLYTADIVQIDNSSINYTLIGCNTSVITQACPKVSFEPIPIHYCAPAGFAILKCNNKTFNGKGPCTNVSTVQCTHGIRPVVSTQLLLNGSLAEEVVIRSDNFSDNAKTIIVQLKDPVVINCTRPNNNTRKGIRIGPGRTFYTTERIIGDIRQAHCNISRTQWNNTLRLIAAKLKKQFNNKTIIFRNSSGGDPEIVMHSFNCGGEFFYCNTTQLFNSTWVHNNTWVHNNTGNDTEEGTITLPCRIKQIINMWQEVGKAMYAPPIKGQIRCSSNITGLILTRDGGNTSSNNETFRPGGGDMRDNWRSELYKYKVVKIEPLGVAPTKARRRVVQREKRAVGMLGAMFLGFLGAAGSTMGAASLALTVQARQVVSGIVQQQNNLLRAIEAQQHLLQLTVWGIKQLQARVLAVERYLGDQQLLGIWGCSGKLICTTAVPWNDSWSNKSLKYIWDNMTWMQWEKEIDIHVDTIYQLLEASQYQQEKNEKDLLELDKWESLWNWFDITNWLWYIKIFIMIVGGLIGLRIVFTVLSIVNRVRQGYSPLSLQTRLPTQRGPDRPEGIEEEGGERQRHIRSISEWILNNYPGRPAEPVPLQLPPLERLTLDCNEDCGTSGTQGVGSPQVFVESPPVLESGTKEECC
- Assay Method Text: inhibitors of HIV fusion peptide binding, primary screen, biochemical, uHTS, fluorescence dequenching (AID 1986)
Active and inactive are the calls of the source. Rule as the data show it: actives have a measured IC50 and inactives only a lower limit.
Some molecules, each annotated with its measured IC50.

O=C1NC(=S)N(c2ccc(F)cc2)C(=O)/C1=C\c1ccoc1 ... 5.78 µM (active)
O=C(O)c1cc(-c2ccc(/C=C3\NC(=O)N(c4ccc(Cl)cc4)C3=O)o2)ccc1Cl ... 22.6 µM (active)
Cc1cc(N2C(=O)C(O)=C(C(=O)c3cc4ccccc4o3)C2c2cccc(Br)c2)no1 (stereo not given) ... 16.4 µM (active)
O=c1cc(-c2ccccc2Cl)oc2c(NS(=O)(=O)c3cc(Cl)cc(Cl)c3O)ccc(O)c12 ... 9.18 µM (active)

Let us move to another entry and its IC50.
The observed IC50 for CCOc1cc(/C=C2/C(=N)N3C(=NC2=O)SN=C3S(C)(=O)=O)ccc1OS(=O)(=O)c1ccccc1 when tested with UniProtKB Q6QLK5 stands at 12.2 µM (active)
